B1: Azoarcus group I ribozyme (parent)
chain: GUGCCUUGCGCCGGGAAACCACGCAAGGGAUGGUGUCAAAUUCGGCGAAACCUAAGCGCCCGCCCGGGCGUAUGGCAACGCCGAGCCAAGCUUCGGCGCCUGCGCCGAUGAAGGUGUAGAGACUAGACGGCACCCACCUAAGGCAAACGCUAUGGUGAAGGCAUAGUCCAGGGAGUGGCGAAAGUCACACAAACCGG

Variants of: B1
TEST: reverse-splicing fitness (ratio to wild type); higher = more active; in vitro selection; Mg2+ level not given
Class field: derived from reverse-splicing fitness; ranges low: < 0.008; medium: ≥ 0.008 and < 0.02; high: ≥ 0.02

// query Could you place C82A A111G A120C C150U C169A in its proper category? Many thanks.
// result medium

// query Exam item: assign A120C A145G C150U C169U U176A to the correct category.
// result high

// query Where would C82A A111G A145C C150G U176C land among the classes by reported reverse-splicing fitness?
// result medium

// query For the record C82G A111G A145C C150U C169G U176C , report the class its reverse-splicing fitness corresponds to.
// result medium

// query Which of the defined bands does the recorded reverse-splicing fitness of C82A A120G A145G C150A C169G U176G sit within?
// result low

// query Category of A111G A120U C150U C169U U176A , please.
// result medium

// query Class? Entry: A111G A145U U176A
// result high

// query Lab note: which band did C82U A120G C150U C169A U176A land in?
// result medium

// query Where would C82A A111C A120C A145C C150U C169U U176C land among the classes by reported reverse-splicing fitness?
// result medium

// query For A111G A145G C150U U176A , which reverse-splicing fitness bin applies?
// result high

// query Could you tell me which band C82G C150A C169G U176A belongs to?
// result medium

// query Quick check: band for C82A A145C C150G U176A
// result high

// query Each variant maps to one class by reverse-splicing fitness. Which class for C82U A111U A120C A145G C150U C169A ?
// result medium

// query Lab note: sort A111C A145C C150G C169G U176A into the matching reverse-splicing fitness band.
// result low

// query For C82U A111U A120G A145C C150U C169G U176C , which reverse-splicing fitness bin applies?
// result medium

// query Please report the category associated with C82A A111G A120G A145C C169G U176A , nothing else.
// result high

// query Which bin should I file C82U A111C A120G A145G C169U U176A under?
// result medium

// query Any idea which band C82A A111C A120G A145G C150A C169A is in?
// result medium

// query Input C82G A111C C150A U176A ; output its category
// result high

// query Category of C82G A111G A145C C150G C169U U176A :
// result medium

// query Class (by measured reverse-splicing fitness) for A111U A120U A145G C150U U176C
// result high

// query Which of the defined bands does the recorded reverse-splicing fitness of C82U A111U A120C C150U U176G sit within?
// result low

// query # classify by reverse-splicing fitness band: C82U A145G C150U U176G
// result high

// query Which bin should I file A111C A120U A145C C150U C169A U176G under?
// result low

// query Consider C82U A120G A145C C150A C169G . To which reverse-splicing fitness class does it belong?
// result low

// query Hey, which category is C82U A111G A145G C150U C169A U176C in, do you know?
// result medium

// query Please indicate the class for C82U A120U A145G C150A C169G U176A based on its reverse-splicing fitness.
// result low

// query Into which bin does this variant go? C82G A120G A145U C150U C169U U176G
// result low

// query Pick a category. Item: C82U A120U A145G U176G
// result medium

// query Kindly identify the class of C82U A145G C150G U176C .
// result high

// query Place this variant in its band: C82G A111U A120U A145C U176A
// result medium

// query Form field 'band' for C82U A111C A120C C150U U176A
// result medium

// query Which class does A111G A120U A145C U176A fall in?
// result high

// query // return the class label for A111G A120C C150A C169U
// result high

// query Which category does the recorded reverse-splicing fitness put C82G A111U A120U A145G C150G C169G U176C in?
// result low

// query Which class does C82G A111U A145U C150G U176G fall in?
// result low

// query Which bin, given its reverse-splicing fitness, does A120G A145U C150G C169U U176G occupy?
// result low

// query Classify this variant: C82A A120U C169U U176A
// result low

// query GET /class?item= C82G A111C A145U C169G U176G
// result low

// query Entry C82G A111U A120C A145C C169G U176G belongs to which category?
// result low

// query Sort A111C A120G A145C C150G C169G into one of the categories.
// result high

// query Hello team, could you let me know which band the following variant falls into: C82U A111G A120U A145U C150U
// result high

// query The entry to classify is A111U A120U C150U C169G U176A ; which class holds it?
// result medium

// query Input C82G A111C A145G U176A ; output its category
// result high

// query Hey, which category is A111G A120U A145G C150G C169G in, do you know?
// result medium

// query Hey, which category is C82G A111G A120U C150A C169U in, do you know?
// result low

// query Please let me know in which category the item A111U A120G C150G belongs.
// result medium

// query Which bin should I file A111U A120U A145G C150A U176A under?
// result high

// query Class label required: C82U A145U C169U U176A
// result medium

// query Textbook exercise: identify the category of the variant given here, C82G A111U A145C C150G C169G U176C , according to its measured value.
// result low

// query Could you tell me which band C82G A111U A120C A145C C150A C169A U176G belongs to?
// result low

// query Exercise: read the entry C82G A120C C150G C169G U176A and state which class it falls under.
// result low

// query Dear colleague, I would appreciate it if you could identify the bin for C82U A111G A120G C150G C169A U176C and reply at your convenience.
// result medium

// query Kindly identify the class of A111G A120G C150U U176C .
// result high

// query Which class holds C82U A111U A145C C150U U176C ?
// result high

// query Exam item: assign A120C A145G C150A C169U U176A to the correct category.
// result high

// query Which class does C82G A111G A120G A145U C150U C169U U176C fall in?
// result medium

// query Determine which band this variant sits in: C82A A111U A120U C150U U176C
// result medium

// query Which class does A111C A120G A145G C150U U176A fall in?
// result high

// query Which class does C82G A111U A120G A145C C150A C169G fall in?
// result medium

// query State the band of C82U A120C A145G U176A
// result high

// query Class label required: C82G A111C C169U
// result medium

// query # bin label for C82A A111U A145C C150G C169U U176G
// result low

// query Could you tell me which band C82G A111G A120U A145U C169G U176A belongs to?
// result low

// query For this variant, which bin applies? C82A A120G A145U C150U C169A U176C
// result medium

// query Please let me know in which category the item C82G A145C C150U C169G U176A belongs.
// result medium

// query Hi there! Could you help me figure out the category for C82U A111G A145U C169A please?
// result low

// query Hello team, could you let me know which band the following variant falls into: C82G A111C A120U A145G C150A C169A U176G
// result low

// query Which bin, given its reverse-splicing fitness, does C82A A120G A145U C169G U176G occupy?
// result low

// query Category lookup for the variant C82U A111C C169A U176C
// result high

// query Returns: class label. Input: C82G A111C A145C C150A C169U U176A
// result medium

// query Using the reported reverse-splicing fitness, which band applies to C82U A111C A120G A145U C150U C169G U176A ?
// result medium

// query Kindly state the category for this variant: C82A A120C C150U C169U U176G
// result low

// query The entry to classify is C82U A111C A145G C169U ; which class holds it?
// result medium

// query Could you place C82U A111C A120C A145U C150U C169U U176C in its proper category? Many thanks.
// result medium

// query Category of C82A A111G C169U U176G :
// result low

// query Please indicate the class for C82U A111G A120G C150A C169A based on its reverse-splicing fitness.
// result medium

// query Hi there! Could you help me figure out the category for C82U A120C A145G C150G C169A U176C please?
// result medium

// query Which class does C82G A120G C150G fall in?
// result low

// query Bin? A111U A120C A145U C169A U176G
// result low

Source: the RNAGym collection of RNA variant scans (doi:10.1093/molbev/msab373)
